Molecular target: JNK1α1 (Homo sapiens)
Construct: purchased Upstate (Charlottesville, Va.)
Sequence (P45983 1-384 isoform P45983-2, species assumed): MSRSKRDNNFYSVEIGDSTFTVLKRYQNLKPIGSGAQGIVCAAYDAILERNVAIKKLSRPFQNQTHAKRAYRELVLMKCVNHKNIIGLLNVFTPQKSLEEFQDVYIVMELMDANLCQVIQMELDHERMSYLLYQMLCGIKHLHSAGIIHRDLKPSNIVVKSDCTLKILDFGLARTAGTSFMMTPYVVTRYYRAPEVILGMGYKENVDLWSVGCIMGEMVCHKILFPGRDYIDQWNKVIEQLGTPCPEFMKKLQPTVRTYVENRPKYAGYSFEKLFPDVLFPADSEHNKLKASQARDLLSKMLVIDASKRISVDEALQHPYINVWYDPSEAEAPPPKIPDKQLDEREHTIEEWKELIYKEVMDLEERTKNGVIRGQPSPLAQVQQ
Experiment: Broad selectivity panel, 32P incorporation
Format: biochemical
Settings: 0.1 μM compound, 40 μM ATP; read-out: Percent inhibition JNK1α1
Answer each item with its documented inhibition at 0.1 µM.
Numbers only, in %.

Fc1ccc(-c2nc3occn3c2-c2ccnc(N[C@H]3CN4CCC3CC4)n2)cc1 = -25
Fc1ccc(-c2nc3occn3c2-c2ccnc(NC3CCNCC3)n2)cc1 = -26
CN1[C@@H]2CC[C@H]1C[C@@H](Nc1nccc(-c3c(-c4ccc(F)cc4)nc4occn34)n1)C2 = -13
CN(C)CC(C)(C)CNc1nccc(-c2c(-c3ccc(F)cc3)nc3occn23)n1 = -1
CS(=O)(=O)N1CCC(Nc2nccc(-c3c(-c4ccc(F)cc4)nc4occn34)n2)CC1 = 37
CC(=O)N1CCC(Nc2nccc(-c3c(-c4ccc(F)cc4)nc4occn34)n2)CC1 = -13

inhibition at 0.1 µM recorded for this compound, `Fc1ccc(-c2nc3occn3c2-c2ccnc(N[C@@H]3CN4CCC3CC4)n2)cc1` , is -20

* * *

Answer each item with its documented pIC50.
Target: p38α (Homo sapiens, UniProt Q16539)
Construct: p38 MAP Kinases are recombinant human full-length proteins with an amino-terminal GST fusion; GST (N)
Sequence (Q16539 whole entry, the tested form may be a part): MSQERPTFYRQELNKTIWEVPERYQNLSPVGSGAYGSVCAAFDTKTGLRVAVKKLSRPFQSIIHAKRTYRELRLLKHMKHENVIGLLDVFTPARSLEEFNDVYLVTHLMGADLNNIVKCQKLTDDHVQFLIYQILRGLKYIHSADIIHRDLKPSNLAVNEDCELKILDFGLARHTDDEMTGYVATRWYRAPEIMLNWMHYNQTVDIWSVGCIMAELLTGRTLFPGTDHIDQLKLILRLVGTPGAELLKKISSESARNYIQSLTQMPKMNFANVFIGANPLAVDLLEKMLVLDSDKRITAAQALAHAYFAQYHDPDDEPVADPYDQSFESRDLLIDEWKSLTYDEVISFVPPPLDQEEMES
Assay: p38 MAP Kinase assay, ATF2 phosphorylation (ELISA)
Details: 40 μM ATP
Answers are plain numbers, as −log10 of the molar value.

// below: answered compounds
CCC(CO)(CO)Nc1nccc(-c2c(-c3ccc(F)cc3)nc3sccn23)n1 [CLXXX] = 7.09
Fc1ccc(-c2nc3sccn3c2-c2ccnc(NCc3nc4ccccc4[nH]3)n2)cc1 [CCXL] = 6.87
O[C@@H]1CCN(c2nccc(-c3c(-c4ccc(F)cc4)nc4occn34)n2)C1 [CI] = 5.85
CS(=O)(=O)c1ccc(CNc2nccc(-c3c(-c4ccc(F)cc4)nc4occn34)n2)cc1 [LXXXI] = 5.91
Nc1cc(-c2c(-c3ccc(F)cc3)nc3sccn23)nc(NCCc2ccncc2)n1 [CCXXVIII] = 6.02
FC(F)(F)c1cccc(-c2nc3occn3c2-c2ccnc(N[C@@H]3CN4CCC3CC4)n2)c1 [CCXCIII] = 8.31
Fc1ccc(-c2nc3occn3c2-c2ccnc(NCc3cccs3)n2)cc1 [XLIX] = 8.23
CCC[C@@H](CO)Nc1nccc(-c2c(-c3ccc(F)cc3)nc3occn23)n1 [CVIII] = 8.51

pIC50 recorded for this compound, CCOC(=O)Cc1csc2nc(-c3ccc(F)cc3)c(-c3ccnc(NCC(C)C)n3)n12 [CLXII] , is 6.00

* * *

Answer each item with its documented inhibition at 0.1 µM.
Biological target: PKBβ (Homo sapiens, UniProt P31751)
Construct: purchased Upstate (Charlottesville, Va.)
Sequence (P31751 whole entry, species assumed): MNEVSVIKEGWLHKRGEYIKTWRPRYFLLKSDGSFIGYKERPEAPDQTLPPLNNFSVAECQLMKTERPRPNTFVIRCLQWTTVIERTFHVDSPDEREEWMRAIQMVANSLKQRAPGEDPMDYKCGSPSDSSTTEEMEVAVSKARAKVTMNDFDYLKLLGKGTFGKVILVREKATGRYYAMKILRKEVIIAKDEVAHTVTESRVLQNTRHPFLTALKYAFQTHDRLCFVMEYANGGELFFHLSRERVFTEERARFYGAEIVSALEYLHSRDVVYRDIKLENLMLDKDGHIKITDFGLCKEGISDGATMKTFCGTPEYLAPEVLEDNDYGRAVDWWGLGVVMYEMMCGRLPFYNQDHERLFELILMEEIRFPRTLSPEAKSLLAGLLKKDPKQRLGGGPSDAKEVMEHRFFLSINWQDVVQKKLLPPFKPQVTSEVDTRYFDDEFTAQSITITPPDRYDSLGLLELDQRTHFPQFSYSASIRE
Experiment: Broad selectivity panel, 32P incorporation
Format: biochemical
Conditions: 0.1 μM compound, 40 μM ATP; read-out: Percent inhibition PKBβ
Method: Various compounds of the present invention are screened against a panel of 24 additional kinases (Upstate, Charlottesville, Va.). Compounds are tested 0.1 μM and 1 μM in reactions containing 40 μM ATP. Incorporation of radiolabeled phosphate (^32P) into each kinase substrate is measured in the presence and absence of test compound. Results are reported as the percent decrease in the amount of ^32P incorporated into the substrate in the presence of compound, compared to buffer control.
Numbers only, in %.

CS(=O)(=O)N1CCC(Nc2nccc(-c3c(-c4ccc(F)cc4)nc4occn34)n2)CC1 = 0
CC(=O)N1CCC(Nc2nccc(-c3c(-c4ccc(F)cc4)nc4occn34)n2)CC1 = -3
Fc1ccc(-c2nc3occn3c2-c2ccnc(N[C@@H]3CN4CCC3CC4)n2)cc1 = -42
CN(C)CC(C)(C)CNc1nccc(-c2c(-c3ccc(F)cc3)nc3occn23)n1 = -4
Fc1ccc(-c2nc3occn3c2-c2ccnc(N[C@H]3CN4CCC3CC4)n2)cc1 = -26

I need inhibition at 0.1 µM for every entry listed below, if you could help.
1. Fc1ccc(-c2nc3occn3c2-c2ccnc(NC3CCNCC3)n2)cc1
2. CN1[C@@H]2CC[C@H]1C[C@@H](Nc1nccc(-c3c(-c4ccc(F)cc4)nc4occn34)n1)C2

1. -18
2. -12

* * *

Biological target: PKA (Homo sapiens)
Construct: purchased Upstate (Charlottesville, Va.)
Test: Broad selectivity panel, 32P incorporation
Format: biochemical
Conditions: 0.1 μM compound, 40 μM ATP; read-out: Percent inhibition PKA
measurement-label: inhibition at 0.1 µM (%)
One number for each entry, in %.

// below: answered compounds
CN(C)CC(C)(C)CNc1nccc(-c2c(-c3ccc(F)cc3)nc3occn23)n1 [CXIX] = 1
CC(=O)N1CCC(Nc2nccc(-c3c(-c4ccc(F)cc4)nc4occn34)n2)CC1 [CCLXXVIII] = -6
CN1[C@@H]2CC[C@H]1C[C@@H](Nc1nccc(-c3c(-c4ccc(F)cc4)nc4occn34)n1)C2 [CCLXXXI] = -11
CS(=O)(=O)N1CCC(Nc2nccc(-c3c(-c4ccc(F)cc4)nc4occn34)n2)CC1 [CCLXXIX] = 6
Fc1ccc(-c2nc3occn3c2-c2ccnc(NC3CCNCC3)n2)cc1 [CCLXXX] = 0

I need inhibition at 0.1 µM for every entry listed below, if you could help.
1. Fc1ccc(-c2nc3occn3c2-c2ccnc(N[C@@H]3CN4CCC3CC4)n2)cc1 [LXXI]
2. Fc1ccc(-c2nc3occn3c2-c2ccnc(N[C@H]3CN4CCC3CC4)n2)cc1 [LXXXVII]

1. 16
2. -10

* * *

Biological target: CDK2/cyclinA (Homo sapiens, UniProt P24941)
Construct: purchased Upstate (Charlottesville, Va.)
Experiment: Broad selectivity panel, 32P incorporation
Type: biochemical
Conditions: 1 μM compound, 40 μM ATP; read-out: Percent inhibition CDK2/cyclinA
measurement-label: inhibition at 1 µM (%)
One number for each entry, in %.

// below: answered molecules
CC(=O)N1CCC(Nc2nccc(-c3c(-c4ccc(F)cc4)nc4occn34)n2)CC1 = 20
CN1[C@@H]2CC[C@H]1C[C@@H](Nc1nccc(-c3c(-c4ccc(F)cc4)nc4occn34)n1)C2 = 5
Fc1ccc(-c2nc3occn3c2-c2ccnc(N[C@@H]3CN4CCC3CC4)n2)cc1 = 8
Fc1ccc(-c2nc3occn3c2-c2ccnc(N[C@H]3CN4CCC3CC4)n2)cc1 = 0
Fc1ccc(-c2nc3occn3c2-c2ccnc(NC3CCNCC3)n2)cc1 = 19

I need inhibition at 1 µM for every entry listed below, if you could help.
1. CS(=O)(=O)N1CCC(Nc2nccc(-c3c(-c4ccc(F)cc4)nc4occn34)n2)CC1
2. CN(C)CC(C)(C)CNc1nccc(-c2c(-c3ccc(F)cc3)nc3occn23)n1

65
-1

* * *

Target: PKB α (Homo sapiens)
Construct: purchased Upstate (Charlottesville, Va.)
Sequence (P31749 whole entry, species assumed): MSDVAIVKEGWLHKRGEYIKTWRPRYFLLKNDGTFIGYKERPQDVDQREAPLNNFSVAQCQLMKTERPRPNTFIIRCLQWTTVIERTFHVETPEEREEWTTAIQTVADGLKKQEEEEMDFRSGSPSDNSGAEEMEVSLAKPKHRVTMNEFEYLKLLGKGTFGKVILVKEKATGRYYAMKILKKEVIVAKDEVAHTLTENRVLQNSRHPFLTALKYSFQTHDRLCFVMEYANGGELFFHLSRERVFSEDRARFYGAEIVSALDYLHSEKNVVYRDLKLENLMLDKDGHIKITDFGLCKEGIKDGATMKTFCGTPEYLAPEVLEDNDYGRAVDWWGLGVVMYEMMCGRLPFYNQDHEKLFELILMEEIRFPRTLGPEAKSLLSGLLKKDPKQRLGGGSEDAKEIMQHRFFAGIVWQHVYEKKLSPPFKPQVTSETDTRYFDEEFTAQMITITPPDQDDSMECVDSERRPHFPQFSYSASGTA
Assay: Broad selectivity panel, 32P incorporation
Format: biochemical
Details: 0.1 μM compound, 40 μM ATP; read-out: Percent inhibition PKB α
Experimental: Various compounds of the present invention are screened against a panel of 24 additional kinases (Upstate, Charlottesville, Va.). Compounds are tested 0.1 μM and 1 μM in reactions containing 40 μM ATP. Incorporation of radiolabeled phosphate (^32P) into each kinase substrate is measured in the presence and absence of test compound. Results are reported as the percent decrease in the amount of ^32P incorporated into the substrate in the presence of compound, compared to buffer control.
measurement-label: inhibition at 0.1 µM (%)
Numbers only, in %.

// below: answered compounds
CN1[C@@H]2CC[C@H]1C[C@@H](Nc1nccc(-c3c(-c4ccc(F)cc4)nc4occn34)n1)C2 = -2
Fc1ccc(-c2nc3occn3c2-c2ccnc(NC3CCNCC3)n2)cc1 = -1

inhibition at 0.1 µM recorded for this compound, `CN(C)CC(C)(C)CNc1nccc(-c2c(-c3ccc(F)cc3)nc3occn23)n1` , is 11

* * *

Target: PDGFR α (Homo sapiens)
Construct: purchased Upstate (Charlottesville, Va.)
Sequence (P16234 24-1089, species assumed): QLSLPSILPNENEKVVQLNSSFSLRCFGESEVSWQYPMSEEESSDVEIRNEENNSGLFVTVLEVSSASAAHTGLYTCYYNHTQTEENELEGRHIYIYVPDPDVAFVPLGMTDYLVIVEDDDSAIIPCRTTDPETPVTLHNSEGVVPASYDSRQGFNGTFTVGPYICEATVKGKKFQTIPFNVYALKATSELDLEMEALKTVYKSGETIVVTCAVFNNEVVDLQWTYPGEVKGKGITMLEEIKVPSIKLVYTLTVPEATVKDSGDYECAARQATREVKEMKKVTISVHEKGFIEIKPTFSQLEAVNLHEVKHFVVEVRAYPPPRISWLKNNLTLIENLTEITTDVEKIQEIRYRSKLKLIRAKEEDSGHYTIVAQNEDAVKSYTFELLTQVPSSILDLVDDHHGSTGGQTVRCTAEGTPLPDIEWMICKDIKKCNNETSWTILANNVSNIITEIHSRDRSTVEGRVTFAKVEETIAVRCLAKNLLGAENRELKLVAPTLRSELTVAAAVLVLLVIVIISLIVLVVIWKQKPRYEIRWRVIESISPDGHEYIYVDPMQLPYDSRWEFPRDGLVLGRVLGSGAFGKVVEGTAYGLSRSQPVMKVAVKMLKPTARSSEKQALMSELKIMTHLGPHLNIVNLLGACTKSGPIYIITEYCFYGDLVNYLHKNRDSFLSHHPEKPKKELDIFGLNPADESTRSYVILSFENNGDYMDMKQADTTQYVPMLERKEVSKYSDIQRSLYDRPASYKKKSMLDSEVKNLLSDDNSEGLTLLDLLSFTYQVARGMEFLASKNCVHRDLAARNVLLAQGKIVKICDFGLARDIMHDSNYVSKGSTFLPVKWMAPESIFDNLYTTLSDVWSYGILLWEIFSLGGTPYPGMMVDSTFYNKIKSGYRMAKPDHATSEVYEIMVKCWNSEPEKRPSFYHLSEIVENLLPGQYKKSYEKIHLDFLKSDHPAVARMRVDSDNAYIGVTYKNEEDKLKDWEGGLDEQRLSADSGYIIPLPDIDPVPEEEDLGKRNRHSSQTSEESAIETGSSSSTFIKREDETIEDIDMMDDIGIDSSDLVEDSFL
Test: Broad selectivity panel, 32P incorporation
Assay type: biochemical
Conditions: 0.1 μM compound, 40 μM ATP; read-out: Percent inhibition PDGFR α
measurement-label: inhibition at 0.1 µM (%)
Numbers only, in %.

// below: answered compounds
Fc1ccc(-c2nc3occn3c2-c2ccnc(N[C@H]3CN4CCC3CC4)n2)cc1 = -6
CN(C)CC(C)(C)CNc1nccc(-c2c(-c3ccc(F)cc3)nc3occn23)n1 = 26

As a next step, examine the compound that follows.
inhibition at 0.1 µM recorded for this compound, `Fc1ccc(-c2nc3occn3c2-c2ccnc(NC3CCNCC3)n2)cc1` , is 1

* * *

JNK2α2 (Homo sapiens, UniProt P45984) pIC50 data
Sequence (P45984 whole entry): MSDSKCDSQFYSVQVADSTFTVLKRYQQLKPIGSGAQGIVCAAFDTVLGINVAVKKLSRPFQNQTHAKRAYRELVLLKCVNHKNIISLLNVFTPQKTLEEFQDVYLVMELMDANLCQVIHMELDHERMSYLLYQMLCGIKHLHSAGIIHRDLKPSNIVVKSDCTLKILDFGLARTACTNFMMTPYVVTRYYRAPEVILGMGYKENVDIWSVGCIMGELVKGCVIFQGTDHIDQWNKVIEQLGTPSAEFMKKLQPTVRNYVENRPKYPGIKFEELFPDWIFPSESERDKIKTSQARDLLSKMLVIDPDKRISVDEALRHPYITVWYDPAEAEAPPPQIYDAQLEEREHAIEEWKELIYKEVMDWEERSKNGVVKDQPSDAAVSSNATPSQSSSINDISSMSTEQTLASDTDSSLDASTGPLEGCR
Numbers only, as −log10 of the molar value.

// below: answered compounds
Fc1ccc(-c2nc3occn3c2-c2ccnc(N[C@@H]3CN4CCC3CC4)n2)cc1 [LXXI] = 5.80
Fc1ccc(-c2nc3occn3c2-c2ccnc(NC3CN4CCC3CC4)n2)cc1 (stereo not shown) [LXXXIV] = 5.65
Fc1ccc(-c2nc3occn3c2-c2ccnc(N[C@H]3CN4CCC3CC4)n2)cc1 [LXXXVII] = 5.98

As a next step, examine the compound that follows.
pIC50 recorded for this compound, CN1[C@@H]2CC[C@H]1C[C@@H](Nc1nccc(-c3c(-c4ccc(F)cc4)nc4occn34)n1)C2 [CCLXXXI] , is 6.12

Cited source for all entries: patent US20070270418A1
